// IC50 lookup, one value per entry
# System: Hs578T multi-cell spheroids, viability
# METHOD: Anticancer human tumor Hs578T cell line growth inhibition [IpAb];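 also: drug exposure lasted 7 days before readout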
# CONDITION DETAILS: curve of first compound; second compound 10 µM

MOLECULE: COc1c(OCCCN2CCOCC2)ccc2c3n(c(=NC(=O)c4cnc(N)nc4)nc12)CCN3 + CC(C)NCC(C(=O)N1CCN(c2ncnc3c2C(C)CC3O)CC1)c1ccc(Cl)cc1
IC50: < 3.16 nM
--
MOLECULE: CC(C)(C)c1cnc(CSc2cnc(NC(=O)C3CCNCC3)s2)o1 + CC(C)NCC(C(=O)N1CCN(c2ncnc3c2C(C)CC3O)CC1)c1ccc(Cl)cc1
IC50: 33.3 nM
--
MOLECULE: CC1(C)CCC(CN2CCN(c3ccc(C(=O)NS(=O)(=O)c4ccc(NCC5CCOCC5)c([N+](=O)[O-])c4)c(Oc4cnc5[nH]ccc5c4)c3)CC2)=C(c2ccc(Cl)cc2)C1 + CC(C)NCC(C(=O)N1CCN(c2ncnc3c2C(C)CC3O)CC1)c1ccc(Cl)cc1
IC50: < 31.6 nM
--
MOLECULE: Cn1cnc2c(F)c(Nc3ccc(Br)cc3Cl)c(C(=O)NOCCO)cc21 + CC(C)NCC(C(=O)N1CCN(c2ncnc3c2C(C)CC3O)CC1)c1ccc(Cl)cc1
IC50: 26.5 nM
--
MOLECULE: CCCS(=O)(=O)Nc1ccc(F)c(C(=O)c2c[nH]c3ncc(-c4ccc(Cl)cc4)cc23)c1F + CC(C)NCC(C(=O)N1CCN(c2ncnc3c2C(C)CC3O)CC1)c1ccc(Cl)cc1
IC50: < 31.6 nM
--
MOLECULE: Cc1nc(NC(=O)N2CCCC2C(N)=O)sc1-c1ccnc(C(C)(C)C(F)(F)F)c1 (stereo not drawn) + CC(C)NCC(C(=O)N1CCN(c2ncnc3c2C(C)CC3O)CC1)c1ccc(Cl)cc1
IC50: < 31.6 nM
--
MOLECULE: Cn1nccc1Nc1nccc(-c2ccn(C(CO)c3ccc(Cl)c(F)c3)c(=O)c2)n1 (stereo not drawn) + CC(C)NCC(C(=O)N1CCN(c2ncnc3c2C(C)CC3O)CC1)c1ccc(Cl)cc1
IC50: 138 nM
--
MOLECULE: C=CCn1c(=O)c2cnc(Nc3ccc(N4CCN(C)CC4)cc3)nc2n1-c1cccc(C(C)(C)O)n1 + CC(C)NCC(C(=O)N1CCN(c2ncnc3c2C(C)CC3O)CC1)c1ccc(Cl)cc1
IC50: < 31.6 nM
--
MOLECULE: CC(C)n1nc(-c2ccc3oc(N)nc3c2)c2c(N)ncnc21 + CC(C)NCC(C(=O)N1CCN(c2ncnc3c2C(C)CC3O)CC1)c1ccc(Cl)cc1
IC50: < 0.316 nM
--
MOLECULE: C=CC(=O)N1CCN(c2nc(=O)n(-c3c(C)ccnc3C(C)C)c3nc(-c4c(O)cccc4F)c(F)cc23)C(C)C1 (stereo not drawn) + CC(C)NCC(C(=O)N1CCN(c2ncnc3c2C(C)CC3O)CC1)c1ccc(Cl)cc1
IC50: < 31.6 nM
--
MOLECULE: Cn1ncc(Cl)c1-c1cc(C(=O)NC(CN)Cc2cccc(F)c2)sc1Cl (stereo not drawn) + CC(C)NCC(C(=O)N1CCN(c2ncnc3c2C(C)CC3O)CC1)c1ccc(Cl)cc1
IC50: 31.6 nM
--
MOLECULE: CC(=O)c1c(C)c2cnc(Nc3ccc(N4CCNCC4)cn3)nc2n(C2CCCC2)c1=O + CC(C)NCC(C(=O)N1CCN(c2ncnc3c2C(C)CC3O)CC1)c1ccc(Cl)cc1
IC50: < 0.949 nM
--
MOLECULE: Cn1ncnc1[C@H]1c2n[nH]c(=O)c3cc(F)cc(c23)N[C@@H]1c1ccc(F)cc1 + CC(C)NCC(C(=O)N1CCN(c2ncnc3c2C(C)CC3O)CC1)c1ccc(Cl)cc1
IC50: < 0.316 nM

Recorded values, source PubChem BioAssay AID2060331.
